# maps each entry to its pmol of compound needed for 50% inhibition of binding in the competitive ELISA, CA3
target: monoclonal antibody CA3; assay: competitive ELISA, inhibition of binding of antibody CA3 to structure 1a,b-KLH conjugate; set-up: species or system mouse; conditions: plate coated with structure 1a,b-KLH conjugate
measurement-kind: pmol of compound needed for 50% inhibition of binding in the competitive ELISA, CA3

>  <compound>
CC1CC(O)n2c(nc3c(ncn3[C@H]3C[C@H](O)[C@@H](CO)O3)c2=O)N1 (mixture of isomers) [1b]

>  <target-entity>
monoclonal antibody CA3

>  <observed>
10 pmol

$$$$
>  <compound>
Nc1ncnc2c1ncn2[C@H]1C[C@H](O)[C@@H](CO)O1 [Deoxyadenosine, reference compound]

>  <target-entity>
monoclonal antibody CA3

>  <observed>
> 80,000 pmol

$$$$
>  <compound>
Cc1cn([C@H]2C[C@H](O)[C@@H](CO)O2)c(=O)[nH]c1=O [Thymidine, reference compound]

>  <target-entity>
monoclonal antibody CA3

>  <observed>
> 100,000 pmol

$$$$
>  <compound>
Nc1ccn([C@H]2C[C@H](O)[C@@H](CO)O2)c(=O)n1 [Deoxycytosine, reference compound]

>  <target-entity>
monoclonal antibody CA3

>  <observed>
> 110,000 pmol

$$$$

###

# maps each entry to its pmol of compound needed for 50% inhibition of binding in the competitive ELISA, CA1
biological target: monoclonal antibody CA1; test: competitive ELISA, inhibition of binding of antibody CA1 to structure 1a,b-KLH conjugate; design: species or system mouse; conditions: plate coated with structure 1a,b-KLH conjugate
measurement-kind: pmol of compound needed for 50% inhibition of binding in the competitive ELISA, CA1

>  <compound>
Nc1nc2c(ncn2[C@H]2C[C@H](O)[C@@H](CO)O2)c(=O)[nH]1 [Deoxyguanosine, reference compound]

>  <observed>
2,564 pmol

$$$$
>  <compound>
Nc1ncnc2c1ncn2[C@H]1C[C@H](O)[C@@H](CO)O1 [Deoxyadenosine, reference compound]

>  <observed>
> 80,000 pmol

$$$$
>  <compound>
Nc1ccn([C@H]2C[C@H](O)[C@@H](CO)O2)c(=O)n1 [Deoxycytosine, reference compound]

>  <observed>
> 110,000 pmol

$$$$
